The values you see were collected from PubChem BioAssay.

- assayed-system: Calmodulin-1 (Homo sapiens)
- test-name: calcium-bound CALM1 binders on microarrays, profiling panel, artefact control for SMM control-protein annotation, biochemical, small-molecule microarray, Cy5-labelled CALM1, plus calcium (AID 1112);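 further: score merges spot fluorescence with signal to noise from triplicate slides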
- measurement-context: Cy5-CALM1 binding fluorescence, higher = more signal
metric-name: composite z-score

INSERT INTO assay_data (molecule, result) VALUES
  ('COCCOC(=O)N1C(=O)[C@@]2(c3cc(C#CC4(O)CCCCCC4)ccc31)[C@H](C(=O)N1CCCCCCC1)[C@H]1C(=O)O[C@H](c3ccccc3)[C@H](c3ccccc3)N1[C@@H]2c1ccc(OCCO)cc1', 1.01),
  ('CC(C)(C)OC(=O)CC[C@]1(C(=O)O)N=C(c2ccc(OCCCO)cc2)O[C@H]1c1ccccc1', 1.05),
  ('CC[C@H]1C2=C3C(CC[C@H]4C(OCc5ccc(F)cc5C(F)(F)F)OC[C@](C)([C@@H]34)N(C(=O)OC(C)(C)C)C2)C2COC(=O)OCC21 (some centres not stated)', 0.911),
  ('COCCCNC(=O)[C@]1(Cc2ccccc2N=[N+]=[N-])N=C(c2ccc(OCCCO)cc2)O[C@@H]1c1ccccc1N=[N+]=[N-]', 0.785),
  ('C=C(C(=O)CC[C@H](OC(=O)c1cccnc1)c1cccc(OCCO)c1)C(C)C', -1.58),
  ('Cc1ccc(S[C@]2(C(=O)NCC(C)C)CC(=O)N(Cc3ccccc3Cl)[C@@H]2c2ccc(CO)cc2I)cc1', -0.0595),
  ('CC(C)(C)OC(=O)CC[C@@]1(C(=O)O)N=C(c2ccc(OCCCO)cc2)O[C@@H]1c1ccccc1', 0.145),
  ('C=C(C(=O)CC[C@H](OC(=O)c1cccnc1)c1ccc(CO)o1)C(C)C', -0.316),
  ('CO[C@H]1O[C@H](CO)[C@@H](OC(=O)Nc2ccc(Oc3ccccc3)cc2)[C@H](OC(=O)Nc2ccccc2-c2ccccc2)[C@@H]1OC(=O)Nc1ccccc1-c1ccccc1', 0.409),
  ('NCCCCCCNC(=O)[C@@H]1C[C@@H]2C(=O)N3CCC[C@H]3C(=O)N2[C@@H]1c1ccc(O)cc1', 0.683),
  ('CC=CC(O)C1C=CC2C(=O)N(C)C(=O)C2N1Nc1ccc([N+](=O)[O-])cc1[N+](=O)[O-] (configuration not stated)', -0.541),
  ('C=CCC(OC(C)=O)[C@@H]1[C@@H](N(Cc2cc3ccccc3o2)C(=O)Cc2ccc(F)cc2)c2cc(OCCCO)ccc2N1C(=O)c1ccc2ccccc2n1 (some centres not stated)', -0.12);

* * *

- test-name: inhibitors of hydroxyurea-induced Chk1 phosphorylation, primary screen, imaging, HeLa, phospho-Chk1 antibody, percent positive cells (AID 1186)
- measurement-context: hydroxyurea-induced phospho-Chk1 immunofluorescence imaging, higher = more signal
metric-name: z-score

INSERT INTO results (molecule, numeric_value) VALUES
  ('COCCOC(=O)N1C(=O)[C@@]2(c3cc(C#Cc4ccc(OC)cc4)ccc31)[C@H](C(=O)N1CCCCCCC1)[C@H]1C(=O)O[C@H](c3ccccc3)[C@H](c3ccccc3)N1[C@@H]2c1ccc(O)cc1', -0.29),
  ('C=CCNC(=O)[C@@H]1[C@H]2C(=O)O[C@H](c3ccccc3)[C@H](c3ccccc3)N2[C@H](c2ccccc2OCCO)[C@@]12C(=O)N(C(=O)OCCOC)c1ccc(C#CC3=CCCCC3)cc12', -0.136),
  ('CCCCN1CC=CC23O[C@@H]4C=CCOC(=O)[C@@H]4[C@H]2C(=O)N(CCCO)[C@@H]3C1=O (stereo partly drawn)', -0.247),
  ('O=C(CS)NCCCCCCNC(=O)[C@H]1C[C@H]2C(=O)N[C@@H](Cc3ccccc3)C(=O)N2[C@H]1c1cccc(OCCO)c1', -0.0078),
  ('CN(C)CCCNC(=O)[C@@H]1c2ccccc2C(=O)N(Cc2ccc(OC(F)(F)F)cc2)[C@H]1c1ccc(CO)cc1', -0.234),
  ('CCCNC(=O)[C@@]1(c2ccc([N+](=O)[O-])cc2)CC(=O)N(C2CCCCC2)[C@@H]1c1ccc(CO)cc1I', -0.0439),
  ('C=C(CCCC)C(=O)CC[C@@H](OC(=O)c1cccnc1)c1ccccc1OCCO', -0.383),
  ('C=CCNC(=O)[C@@H]1[C@H]2C(=O)O[C@H](c3ccccc3)[C@H](c3ccccc3)N2[C@H](c2ccc(OCCO)cc2)[C@@]12C(=O)N(C(=O)OCCOC)c1ccc(C#CC3=CCCCC3)cc12', 0.201);

* * *

Property: composite z-score; scope: individual compounds
- assayed-system: Calmodulin-1 (Homo sapiens) (UniProt P0DP23)
- test-name: calcium-bound CALM1 binders on microarrays, profiling panel, artefact control for SMM control-protein annotation, biochemical, small-molecule microarray, Cy5-labelled CALM1, plus calcium (AID 1112);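 further: score merges spot fluorescence with signal to noise from triplicate slides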
- measurement-context: Cy5-CALM1 binding fluorescence, higher = more signal
metric-name: composite z-score

INSERT INTO assay_data (chemical_structure, result) VALUES
  ('CCCN1C(=O)[C@]2(Cc3ccccc3)N=C(c3ccc(OCCCO)cc3)O[C@@H]2c2ccccc21', -0.422),
  ('CCOC(=O)[C@@H]1[C@@H]2C(=O)N(CC)C(=O)[C@@H]2C[C@@H]1Sc1ccccc1', 0.163),
  ('CCOC(=O)C1=CC[C@@H](c2ccc([N+](=O)[O-])cc2)N(S(=O)(=O)c2ccc(C)cc2)[C@H]1c1ccccc1', 0.423);

* * *

- assayed-system: Torsin-1A-interacting protein 2 (Homo sapiens)
- test-name: LULL1 binders on small-molecule microarray, primary screen, cell lysate, human LULL1 lysate, 635/667 nm fluorescence (AID 1092);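 further: probe is lysate of COS7 cells overexpressing human LULL1; score merges per-feature 667 nm fluorescence with signal-to-noise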
- measurement-context: hLULL1 lysate binding, 635 nm fluorescence, higher = more signal
Property: composite z-score; scope: individual molecules
metric-name: composite z-score

INSERT INTO results (molecule, numeric_value) VALUES
  ('C[N+](C)(C)CCCC[C@@H]1NC(=O)[C@@H]2C[C@H](C(=O)O)[C@H](c3ccc(O)cc3)N2C1=O', -0.972),
  ('O=C1C[C@@](C(=O)NCC(F)(F)F)(c2ccc([N+](=O)[O-])cc2)[C@@H](c2ccc(CO)cc2)N1C1CCCCC1', 3.48),
  ('CC(C)(C)OC(=O)CC[C@@]1(C(=O)O)N=C(c2ccc(OCCCO)cc2)O[C@@H]1c1ccccc1CN=[N+]=[N-]', 2.84),
  ('C=CCOC(=O)[C@H]1[C@@H]2C(=O)O[C@@H](c3ccccc3)[C@@H](c3ccccc3)N2[C@@H](c2ccc(OCCOC(=O)[C@H]3C[C@H]4C(=O)N[C@@H](Cc5ccccc5)C(=O)N4[C@H]3c3ccc(O)cc3)cc2)[C@]12C(=O)Nc1ccc(I)cc12', 2.39),
  ('COCCOC(=O)N1C(=O)[C@@]2(c3ccccc31)[C@H](c1ccc(OCCO)cc1)N1[C@H](c3ccccc3)[C@H](c3ccccc3)OC(=O)[C@H]1[C@@H]2C(=O)Nc1nc2ccccc2s1', 3.13),
  ('Cc1ccc(S[C@]2(C(=O)O)CC(=O)N(Cc3ccccc3Cl)[C@@H]2c2ccc(CO)cc2)cc1', 2.95),
  ('O=C(CS)NCCCCCCNC(=O)[C@@H]1C[C@@H]2C(=O)N3CCC[C@H]3C(=O)N2[C@@H]1c1cccc(OCCO)c1', 2.35),
  ('COCC(=C=CC[C@H](O)c1cccc(OCCO)c1)C[C@H](O)c1ccccn1', 1.88),
  ('CCCC[C@@H]1C[C@H]1[C@@H](NC(=O)c1cccnc1)c1ccc(-c2ccccc2)cc1', -0.795),
  ('COc1ccc([Si](C)(C)[C@H]2[C@H](CCn3cc([C@H](O)c4ccccc4)nn3)O[C@@]3(C(=O)N(Cc4cccc(N5C(=O)c6cccc7cccc5c67)c4)c4ccccc43)[C@@H]2C)cc1', 1.28),
  ('COCCOC(=O)N1C(=O)[C@@]2(c3cc(C#CC4(O)CCCCCC4)ccc31)[C@H](C(N)=O)[C@H]1C(=O)O[C@H](c3ccccc3)[C@H](c3ccccc3)N1[C@@H]2c1ccccc1OCCO', 2.49),
  ('C[C@]1(C(=O)NC2CC2)c2ccccc2C(=O)N(Cc2ccc(OC(F)(F)F)cc2)[C@H]1c1ccc(CO)cc1', 1.77),
  ('O=C1C2C=CC(C(O)c3cc(C(F)(F)F)cc(C(F)(F)F)c3)N(Nc3ccc([N+](=O)[O-])cc3)C2C(=O)N1c1ccccc1 (stereo unspecified)', 3.47),
  ('[N-]=[N+]=NCc1ccccc1C[C@]1(C(=O)NCC(O)CO)N=C(c2ccc(OCCCO)cc2)O[C@H]1c1ccccc1CN=[N+]=[N-] (stereo partly specified)', 3.6),
  ('COCCOC(=O)N1C(=O)[C@@]2(c3cc(C#CC4(O)CCCCCC4)ccc31)[C@H](c1ccccc1OCCO)N1[C@H](c3ccccc3)[C@H](c3ccccc3)OC(=O)[C@H]1[C@@H]2C(N)=O', 2.24),
  ('CCOC(=O)C1=CC[C@@H](c2cc(Cl)ccc2Cl)N(S(=O)(=O)c2ccc(C)cc2)[C@H]1c1ccc(OC)cc1', 0.506);
